Entry source: patent US20240158505A1

- assayTarget: T1, Recombinant Human B7-H3 Fc chimera Protein (Rndsystem, Cat #1027-B3-100) (human, UniProt Q5ZPR3 29-245)
- T1 chain: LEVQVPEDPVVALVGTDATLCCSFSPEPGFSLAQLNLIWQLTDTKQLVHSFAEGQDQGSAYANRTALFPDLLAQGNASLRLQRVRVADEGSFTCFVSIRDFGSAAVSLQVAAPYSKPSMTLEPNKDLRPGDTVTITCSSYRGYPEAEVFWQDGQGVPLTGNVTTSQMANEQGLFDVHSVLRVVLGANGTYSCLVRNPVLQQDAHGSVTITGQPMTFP
- experimentalDetails: ELISA
recordedEndpoint: EC50 (nM)
Use nM as the unit, but write only the number.

binder	unitName	EC50
#5 antibody (antibody, V domains shown) VH: EVQLLESGGGLVQPGGSLRLSCAASGFTFSTYAMSWVRQAPGKGLEWVSAISGSGGSTLYADSVKGRFTISRDNSKNTLYLQMNSLRAEDTAVYYCARGGSATWAFDLWGQGTLVTVSS VL: QSVLTQPPSASGTPGQRVTISCSGSSSNIGSNYVYWYQQLPGTAPKLLIYRNNQRPSGVPDRFSGSKSGTSASLAISGLRSEDEADYYCGTWDSSLSGVVFGGGTKLTVL	nM	1.2
#6 antibody (antibody, V domains shown) VH: EVQLLESGGGLVQPGGSLRLSCAASGFTFSTYAISWVRQAPGKGLEWVSSIYYSGYTHYNPSLESRFTISRDNSKNTLYLQMNSLRAEDTAVYYCARGYSGWMDVWGQGTLVTVSS VL: QSVLTQPPSASGTPGQRVTISCGGNNIGSKSVHWYQQLPGTAPKLLIYDNNKRPSGVPNRFSGSKSGTSASLAISGLRSEDEADYYCAAWDDSLNVPVFGGGTKLTVL	nM	1.86

Form: binder = #1 antibody (antibody, V domains shown) VH: EVQLLESGGGLVQPGGSLRLSCAASGFTFSSYAMSWVRQAPGKGLEWVSTITGSGGSTYYADSVKGRFTISRDNSKNTLYLQMNSLRAEDTAVYYCARYKSGAFDIWGQGTLVTVSS VL: EIVLTQSPGTLSLSPGERATLSCRASQGIGNYLGWYQQKPGQAPRLLIYTASSLQSGIPDRFSGSGSGTDFTLTISRLEPEDFAVYYCQQGYSTPSWTFGQGTKVEIK ; EC50 = 0.18
